A collection of binders and their measured pIC50
Target: recombinant human IGFBP-3 (human, UniProt P17936 28-291)
Sequence (P17936 28-291 limits assumed): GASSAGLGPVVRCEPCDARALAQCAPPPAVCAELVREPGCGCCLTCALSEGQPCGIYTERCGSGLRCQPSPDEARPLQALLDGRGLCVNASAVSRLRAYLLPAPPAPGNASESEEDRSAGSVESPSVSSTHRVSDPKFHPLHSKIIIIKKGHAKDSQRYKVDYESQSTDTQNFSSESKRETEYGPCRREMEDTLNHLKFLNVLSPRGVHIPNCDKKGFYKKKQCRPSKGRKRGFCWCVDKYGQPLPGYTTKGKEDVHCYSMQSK
Experiment: BIAcore competition, IGFBP-3 to IGF-1
Positions of bridges follow the written chain, without caps; N, C: chain ends. suc = not defined here
# pIC50 is unitless: minus log10 of the molar concentration; print number only

binder="suc-CQLVRPDLLLCQ-NH2 (disulfide 1-11; reading uncertain, also called phage parent t4H3.6) [BP3-107]" endpoint_value=4.00

Given suc-IPVSPDWFVCQ-NH2 (reading uncertain, also called phage parent t4H3.9) [BP3-108] , state its recorded pIC50. 4.70
